The reported measurements were obtained from patent US20130197059A1.

Reported pIC50 is given for each of the following molecules.
biological target: sLFA-1/ICAM-1 (Homo sapiens, UniProt P05107+P20701); construct: 2.0 ug/ml solution of sLFA-1 or Mac-1 receptor; assay: sLFA-1/ICAM-1 ELISA (LFA1 Adhesion Assay); assay type: binding; conditions: Table 4; read-out: LFA1 Adhesion Assay
Sequence (P20701 26-1090 limits assumed): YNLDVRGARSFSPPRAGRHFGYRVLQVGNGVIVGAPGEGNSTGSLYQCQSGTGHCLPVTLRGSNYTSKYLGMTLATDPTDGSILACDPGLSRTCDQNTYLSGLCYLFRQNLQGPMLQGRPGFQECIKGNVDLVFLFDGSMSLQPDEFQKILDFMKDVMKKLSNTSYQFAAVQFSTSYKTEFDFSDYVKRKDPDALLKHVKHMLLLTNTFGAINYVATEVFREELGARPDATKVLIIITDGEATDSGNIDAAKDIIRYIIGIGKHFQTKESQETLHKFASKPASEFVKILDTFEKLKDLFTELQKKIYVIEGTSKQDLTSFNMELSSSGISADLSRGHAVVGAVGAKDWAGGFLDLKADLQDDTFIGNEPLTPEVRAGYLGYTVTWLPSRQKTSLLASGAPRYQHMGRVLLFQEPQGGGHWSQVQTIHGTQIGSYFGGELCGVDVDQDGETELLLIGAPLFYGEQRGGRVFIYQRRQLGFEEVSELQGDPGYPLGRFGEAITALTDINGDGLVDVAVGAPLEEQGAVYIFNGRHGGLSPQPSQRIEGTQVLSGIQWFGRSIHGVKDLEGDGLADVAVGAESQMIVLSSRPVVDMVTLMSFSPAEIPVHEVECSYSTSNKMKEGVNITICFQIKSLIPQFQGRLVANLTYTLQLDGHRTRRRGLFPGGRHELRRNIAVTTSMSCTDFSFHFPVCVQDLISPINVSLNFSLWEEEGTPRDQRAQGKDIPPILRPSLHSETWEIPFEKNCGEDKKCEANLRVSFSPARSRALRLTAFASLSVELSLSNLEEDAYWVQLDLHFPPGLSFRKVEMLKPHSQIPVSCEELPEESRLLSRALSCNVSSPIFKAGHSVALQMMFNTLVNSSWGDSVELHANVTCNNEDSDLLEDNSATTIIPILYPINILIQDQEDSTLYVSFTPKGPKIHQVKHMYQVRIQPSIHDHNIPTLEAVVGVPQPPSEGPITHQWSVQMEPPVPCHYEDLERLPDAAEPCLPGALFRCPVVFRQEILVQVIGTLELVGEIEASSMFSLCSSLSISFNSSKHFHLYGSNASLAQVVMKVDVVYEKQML
Sequence (P05107 23-700 limits assumed): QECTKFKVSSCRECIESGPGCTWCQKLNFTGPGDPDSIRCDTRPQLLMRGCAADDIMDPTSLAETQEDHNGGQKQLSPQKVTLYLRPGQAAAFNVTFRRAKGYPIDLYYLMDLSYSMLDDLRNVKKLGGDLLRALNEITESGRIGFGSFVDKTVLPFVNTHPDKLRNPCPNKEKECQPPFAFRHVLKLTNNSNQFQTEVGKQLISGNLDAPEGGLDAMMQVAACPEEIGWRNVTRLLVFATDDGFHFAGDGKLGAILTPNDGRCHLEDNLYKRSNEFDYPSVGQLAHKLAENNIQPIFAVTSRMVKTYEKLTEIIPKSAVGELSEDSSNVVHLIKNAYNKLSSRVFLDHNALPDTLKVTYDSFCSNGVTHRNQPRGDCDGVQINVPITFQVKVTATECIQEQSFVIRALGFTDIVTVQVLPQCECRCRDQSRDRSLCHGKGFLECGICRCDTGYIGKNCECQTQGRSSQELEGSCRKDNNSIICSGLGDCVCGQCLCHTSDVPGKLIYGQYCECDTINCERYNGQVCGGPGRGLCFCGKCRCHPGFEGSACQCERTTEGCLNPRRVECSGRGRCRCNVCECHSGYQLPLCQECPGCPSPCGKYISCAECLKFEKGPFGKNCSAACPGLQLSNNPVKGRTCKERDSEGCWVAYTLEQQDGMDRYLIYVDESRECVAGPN
pIC50: −log10 of the molar value.
VALUE_TYPE: pIC50

> print(dat)
                            compound.string  value.type  quantitative.readout
1  O=C(NCc1cccc(O)c1)c1cc(Cl)c(C(=O)N[C@@H](CNC(=O)c2cc(O)cc(O)c2)C(=O)O)c(Cl)c1       pIC50                  7.96
2  Cc1cc(C(=O)NCc2cccc(Cl)c2)cc(C)c1C(=O)N[C@@H](CNC(=O)c1cccs1)C(=O)O       pIC50                  7.43
